System: HL-60(TB) leukemia
Experiment: NCI-60 one-dose screen, 48 h
Conditions: 10 µM unless noted
About 83,000 compounds went through this panel and 20% of them were active in at least one assay; those are over-represented in the sample as a whole. The source made the active and inactive calls. How the source made its calls: active means growth percent below 10; inactive means the rest.
// allowed return values: yes (1) = active, no (0) = inactive

These solved cases illustrate the format of a correct answer.
In [3]: df
Out[3]:
                                   molecule    label
0  COc1cc2oc(-c3cccc(NC(=O)c4cccc([N+](=O)[O-])c4)c3)cc(=O)c2c(OC)c1OC   no (0)
1  NCCNC(=O)c1cccc(COc2ccccc2NC(=O)c2cc(Br)c(Br)[nH]2)c1   no (0)
2  COC(=O)N1CCN(CCNCc2ccc(NC(=O)c3ccc(C)c(C#Cc4cnc5cccnn45)c3)cc2C(F)(F)F)CC1  yes (1)
3  CCCn1cnc2c(c1=N)C(c1ccc(Cl)cc1)c1sc3c(C)cccc3c1O2 (centres undefined)  yes (1)
4  COc1ccc(OC)c(-c2nc(SCC(=O)c3ccc(Br)cc3)nc(Nc3ccc(S(N)(=O)=O)cc3)c2C#N)c1   no (0)
5  Oc1ccc(CSc2nnc(-c3ccc(Oc4ccccc4)cc3)o2)c2cccnc12   no (0)

// query So what was the verdict on COc1ccc(-c2nc3cccc(O)c3c(=O)n2Cc2ccccc2)cc1COc1ccc(NC(C)=O)cc1 in this test?
// result no (0)

// query So what was the verdict on CCCC(=O)NC(c1cccnc1)c1cc(C)c2cccnc2c1O (centres undefined) in this test?
// result yes (1)

// query So what was the verdict on CN1CCN(Cc2ccc(NC(=O)c3cncc(C#Cc4cnc5ccc(OCC(F)F)nn45)c3)cc2C(F)(F)F)CC1 in this test?
// result yes (1)

// query So what was the verdict on O=C(c1ccc(Cl)cc1)C1[C@H](c2ccc(Cl)cc2)[C@@H](c2ccccc2)NC12C(=O)Nc1ccccc12 (some centres undefined) in this test?
// result no (0)

// query So what was the verdict on CC(C)(O)c1cncc(-c2ccc3ncnc(N4CCc5cc(F)c(Cl)cc54)c3c2)c1 in this test?
// result yes (1)

// query So what was the verdict on NS(=O)(=O)c1ccc(Nc2nc(Nc3ccccc3)nc(-n3nc(-c4ccccc4)cc3-c3ccccc3)n2)cc1 in this test?
// result yes (1)

// query So what was the verdict on Cc1ccc(NC(=S)NNC(=S)Nc2ccc(C)cc2)cc1 in this test?
// result no (0)

// query So what was the verdict on Nc1ccccc1NC(=O)c1ccc(NC(=O)C/C=C/c2cccnc2)cn1 in this test?
// result yes (1)

// query So what was the verdict on CC(=O)Nc1cccc(-n2cnc3cc(-c4ccc(O)cc4)ccc32)c1 in this test?
// result yes (1)

// query So what was the verdict on O=C(N/N=C/c1cc2ccccc2nc1Cl)c1cc(-c2nc3ccccc3[nH]2)nc2ccccc12 in this test?
// result no (0)

// query So what was the verdict on NC(N)=Nc1ccc(Oc2cccc(Nc3ccc(Cl)cc3)c2)cn1 in this test?
// result yes (1)

// query So what was the verdict on COC(=O)/C=C/c1c(C2(C)NC(=O)c3ccccc3N2)c(=O)oc2ccc(Cl)cc12 (centres undefined) in this test?
// result no (0)

// query So what was the verdict on CCCCCCNC(=O)Oc1ccc(/C(=C(/C)c2ccccc2)c2ccc(OCCN(C)C)cc2)cc1 in this test?
// result no (0)
